Study the reported IC50 values for Histone deacetylase 2 (Homo sapiens) given below; they originate from different publications.

Answered cases to consult:
chemical string	system	IC50
O=C(NO)c1ccc2ccn(CCOc3cccc(CN4CCOCC4)c3)c2c1	Histone deacetylase 2 (Homo sapiens)	> 10000 nM
Nc1ccc(-c2ccco2)cc1NC(=O)c1cnc(N2CCNCC2)o1	Histone deacetylase 2 (Homo sapiens)	> 500 nM
CN1CCN(c2cnc(C(=O)Nc3cc(-c4cccs4)ccc3N)cn2)CC1	Histone deacetylase 2 (Homo sapiens)	< 10 nM
O=C(NO)c1ccc(NC2(c3cc(F)ccc3F)CCOCC2)cc1	Histone deacetylase 2 (Homo sapiens)	200 to 300 nM

# evaluate next
# returns recorded IC50 (system: Histone deacetylase 2 (Homo sapiens)) for CC(=O)N1CCC(Nc2ncc(C(=O)NO)cn2)(C(C)C)CC1
2390 nM

====

Several publications report IC50 on Histone deacetylase 2 (Homo sapiens); those values are gathered here.

chemical string	IC50
O=C(Nc1cc(-c2nnn(Cc3ccc(-c4nnc(C(F)F)o4)cn3)n2)ccc1O)N1CCOCC1	> 30000 nM
Nc1ccccc1NC(=O)c1ccc(N2CC[C@H](NC(=O)OCc3ccoc3)C2)cc1	≤ 500 nM

Please report the recorded IC50 for Nc1ccccc1NC(=O)c1ccc(CN2C(=O)Nc3ccccc3S2(=O)=O)c(F)c1 .
< 50 nM

# get_value(readout='IC50', item= Nc1ccc(-c2cccs2)cc1NC(=O)c1ccc2c(c1)ncn2CCN1CCOCC1 )
15 to 20 nM

Record request: IC50 value, item Nc1ccccc1NC(=O)c1ccc(CN2C(=O)Nc3ccc(-c4ccsc4)cc3S2(=O)=O)cc1
< 50 nM

Need IC50 of Nc1ccc(-c2cccs2)cc1NC(=O)c1cnc(N2CCNCC2)cn1 , thanks.
5 to 15 nM

Could you share which IC50 value was measured for COc1ccc(C(=O)N[C@@H](Cc2cscn2)c2nc(Cc3ccc(C(=O)NO)cc3)no2)cc1OC ?
6660 nM

// returns reported IC50 for input CN1C(=O)Cc2cc(C(=O)Nc3cc(-c4ccc(O)cc4)ccc3N)ccc21
60 to 65 nM

====

pIC50: −log10 of the molar value.
Several publications report pIC50 on Histone deacetylase 2 (Homo sapiens); those values are gathered here.
metric: pIC50

chemical string	pIC50
C/C=C1\NC(=O)c2cccc(n2)CNC(=O)C[C@@H](/C=C/CCSC(C)=O)OC(=O)[C@H](C)NC1=O	7.27

(A) COc1ccc2c(c1)C(=O)N(CCCCCC(=O)NO)c1ccccc1S2
(B) CCCNNC(=O)c1ccc(-c2ccc(NC(=O)CCCCCCCCC(=O)N[C@H](C(=O)N3C[C@H](O)C[C@H]3C(=O)N[C@@H](C)c3ccc(-c4scnc4C)cc3)C(C)(C)C)cc2)cc1
Parameter check: reported pIC50 is higher for which label, A or B ? Give the chosen item's label as your response.
A

====

# IC50 against Histone deacetylase 2 (Homo sapiens), merged from multiple literature sources
metric: IC50 (nM)

molecule	metric	unit text	value reported
O=C(NO)c1cnc(NC2(c3ccccc3)CCN(C(=O)Nc3ccccc3)CC2)nc1	IC50	nM	34

(I) C/C=C1\NC(=O)c2nc(cc(SC)n2)CNC(=O)C[C@@H](/C=C/CCSC(C)=O)OC(=O)[C@H](C(C)C)NC1=O
(II) C/C=C1\NC(=O)c2ccc(F)c(n2)CNC(=O)C[C@@H](/C=C/CCSC(C)=O)OC(=O)[C@H](CCCCN)NC1=O
(III) CCCNNC(=O)c1ccc(-c2ccc(NC(=O)COCCOCCOCCOCCNc3cccc4c3C(=O)N(C3CCC(=O)NC3=O)C4=O)cc2)cc1 (centres unmarked)
Which order do these items take when sorted by rising IC50? List them. I would appreciate it if you listed the labels in the requested order.
I, II, III
(I: 33 nM, II: 129 nM, III: 450 nM)
